tested on: Mus musculus; experiment: Thrombotic toxicity in ICR mouse assessed as tail bleeding time at 1.3 mmol/kg, ip after 15 mins; format: organism-based; details: in vivo, 0.25 h
reported_property: Activity (s)
The figure you give is taken to be in s; do not add the unit.

Example molecules with recorded Activity:
- CC1(C)N=C(c2ccc(Cl)cc2Cl)N(O)C1(C)C: 117
- COc1ccc(C2=NC(C)(C)C(C)(C)N2O)cc1O: 118

Request the reported Activity associated with CC1(C)N=C(c2ccccc2O)N(O)C1(C)C 117

====

assay: Cardiovascular toxicity in rat aorta assessed as inhibition of noradrenaline-induced vasoconstriction at 5 mM relative to control; assay type: tissue-based; settings: isolated rat aorta
reported_property: inhibition at 5000 µM (%)
The figure you give is taken to be in %; do not add the unit.

- COc1ccc(C2=NC(C)(C)C(C)(C)N2O)cc1O: 35.1

Request the reported inhibition at 5000 µM associated with COc1ccc(C2=NC(C)(C)C(C)(C)N2O)cc1OC 17.9

Request the reported inhibition at 5000 µM associated with CC1(C)N=C(c2ccccc2[N+](=O)[O-])N(O)C1(C)C 30.2

Request the reported inhibition at 5000 µM associated with COc1cc(C2=NC(C)(C)C(C)(C)N2O)ccc1O 20.6

Request the reported inhibition at 5000 µM associated with CC1(C)N=C(c2cccc(O)c2)N(O)C1(C)C 46.3

Request the reported inhibition at 5000 µM associated with CC1(C)N=C(c2ccc(Cl)cc2Cl)N(O)C1(C)C 15.9
